molecular target: program cell death protein 1 (PD-1) (UniProt Q15116 25-167, limits assumed); assay: SPR (Carterra LSA), IgG, monovalent affinity
Sequence (Q15116 25-167 limits assumed): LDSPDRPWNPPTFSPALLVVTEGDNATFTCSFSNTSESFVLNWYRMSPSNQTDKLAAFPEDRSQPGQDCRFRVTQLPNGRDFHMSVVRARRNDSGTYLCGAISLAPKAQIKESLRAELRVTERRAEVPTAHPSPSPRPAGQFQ
Form field: Kd (one value per entry).
metric: Kd (nM)

* PD1-4 (antibody, V domains shown, IgG in the assay) VH: QVQLVQSGAEVKKPGASVKVSCKASGYTFSTSGISWVRQAPGQGLEWMGWISAYNGNTNYAQKLQGRVTMTTDTSTSTAYMELRSLRSDDTAVYYCARDFDYSSGSGYWGQGTLVTVSS VL: SYELMQPPSVSVSPGQTARITCSGDALPKQYAYWYQQKPGQAPVLVIYKDTERPSGIPERFSGSSSGTTVTLTISGVQAEDEADYYCQSADNSITYRVFGGGTKLTVL | 31.4
* PD1-14 (antibody, V domains shown, IgG in the assay) VH: QVQLVQSGAEVKKPGASVKVSCKASGYPFTNYGISWVRQAPGQGLEWMGWTSAYSGNTNYAQKLQGRVTMTTDTSTSTAYMELRSLRSDDTAVYYCARDFDYSSGSGYWGQGTLVTVSS VL: SYELMQPPSVSVSPGQTARITCSGDALPKQYAYWYQQKPGQAPVLVIYKDTERRSGIPERFSGSSSGTTVTLTISGVQAEDEADYYCQSADNSITYRVFGGGTKLTVL | 45.9
* PD1-50 (antibody, V domains shown) VH: EVQLVESGGGLVQPGRSLRLSCAASGFTFDDYAFHWVRQAPGKDLEWVSGISWNAGSQGYADSVKGRFTISRDNAKNSLYLQMNSLRAEDTALYYCVREKGPGLTGSTADYYGLDAWGQGTMVTVSS | 87.5
* PD1-18 (antibody, V domains shown, IgG in the assay) VH: QVQLVQSGAEVKKPGASVKVSCKASGYTFNNYGISWVRQAPGQGLEWMGWISAYSGHTDYAQKLQGRVTMTTDTSTSTAYMELRSLRSDDTAVYYCARDWDYSSGSGYWGQGTLVTVSS VL: SYELMQPPSVSVSPGQTARITCSGDALSNQYGYWYQQKPGQAPVLVIYKDNERASGIPERFSGSSSGTTVTLTISGVQAEDEADYYCQSADNSITYRVFGGGTKLTVL | 68.4
* PD1-10 (antibody, V domains shown, IgG in the assay) VH: QVQLVQSGAEVKKPGASVKVSCKASGYRFTSYGISWVRQAPGQGLEWMGWISAYNGNTNYAQKLQGRVTMTTDTSTSTAYMELRSLRSDDTAVYYCARDADYASGSGYWGQGTLVTVSS VL: SYELMQPPSVSVSPGQTARITCSGDALPKQYAYWYQQKPGQAPVLVIYKDTERPSGIPERFSGSSSGTTVTLTISGVQAEDEADYYCQSADNSITYRVFGGGTKLTVL | 47.4
* PD1-2 (antibody, V domains shown, IgG in the assay) VH: QVQLVQSGAEVKKPGASVKVSCKASGYSFSNYGISWVRQAPGQGLEWMGWVSAYSGNTNYAQKLQGRVTMTTDTSTSTAYMELRSLRSDDTAVYYCARDADYASGSGYWGQGTLVTVSS VL: SYELMQPPSVSVSPGQTARITCSGDELPNQYAYWYQQKPGQAPVLVIYKDTQRPSGIPERFSGSSSGTTVTLTISGVQAEDEADYYCQSADNSITYRVFGGGTKLTVL | 9.8
* PD1-1 (antibody, V domains shown, IgG in the assay) VH: QVQLVQSGAEVKKPGASVKVSCKASGYTFSHYGISWVRQAPGQGLEWMGWVSAYSGNTRYAQKLQGRVTMTTDTSTSTAYMELRSLRSDDTAVYYCARDATYSSGSGYWGQGTLVTVSS VL: SYELMQPPSVSVSPGQTARITCSGDALPTQYAYWYQQKPGQAPVLVIYQDNERPSGIPERFSGSSSGTTVTLTISGVQAEDEADYYCQSADNSITYRVFGGGTKLTVL | 4.5
* PD1-22 (antibody, V domains shown) VH: EVQLVESGGGLVQPGRSLRLSCAASGFTFDDYAMHWVRQAPGKDLEWVSGISWNGGSMGYAASVKGRFTISRDNAKNSLYLQMNSLRAEDTALYYCVREKGPGLTGSTADYYGLDAWGQGTMVTVSS | 132
* PD1-32 (antibody, V domains shown) VH: EVQLVESGGGLVQPGRSLRLSCAASGFTFDDYAMHWVRQAPGKDLEWVSGISWNSGSMGYADSVKGRFTISRDNAKNSLYLQMNSLRAEDTALYYCVREKGPGLTGSTADYYGLDAWGQGTMVTVSS | 92.2
* PD1-39 (antibody, V domains shown) VH: EVQLVESGGGLVQPGRSLRLSCAASGFTFDDYALHWVRQAPGKDLEWVSGISWNGGSYGYADSVKGRFTISRDNAKNSLYLQMNSLRAEDTALYYCVREKGPGLTGSTADYYGLDAWGQGTMVTVSS | 240
* PD1-23 (antibody, V domains shown, IgG in the assay) VH: QVQLVQSGAEVKKPGASVKVSCKASGYPFTSYGISWVRQAPGQGLEWMGWISAYNGNTNYAQKLQGRVTMTTDTSTSTAYMELRSLRSDDTAVYYCARDVDYSSGSGYWGQGTLVTVSS VL: SYELMQPPSVSVSPGQTARITCSGDALPKQYAYWYQQKPGQAPVLVIYKDTERPSGIPERFSGSSSGTTVTLTISGVQAEDEADYYCQSADNSITYRVFGGGTKLTVL | 69.2
